Test: Quantitative High-Throughput drug screen in 47 multiple myeloma cell lines against the NCATS MIPE library collection: INA6_PLB cell viability assay (AID 1918965; also: nearly all actives have a fitted effect of over 55% in size)
Settings: INA6 myeloma viability, CellTiter-Glo ATP luminescence, 48 h; series mostly up to 45.8 µM
Excerpt: PI: Beverly A. Mock Ph.D. Laboratory of Cancer Biology and Genetics, Center for Cancer Research, National Cancer Institute, National Institute of Health, Bethesda, Maryland […] 5; Detector; 425V; Luminescence; Viewlux PerkinElmer. […] 1. […] Briefly, the corresponding myeloma cell lines were screened in 1,536-well plates with 500 cells, 5-uL per well for inhibition of cell viability (assessed by measuring ATP levels with CellTiterGlo). […]
Inconclusive results are not listed. Calls of active or inactive are those of the source. Calls follow the shape of the dose curve; as a rule, active = well fitted cell-killing curve with a large enough effect; inconclusive = small, poorly fitted or top-dose-only effect, or effect the other way; inactive = no such curve, though single readings can be large or run the other way.
Just give me one of these, please: true = active, false = inactive

Input line: Given CC[C@@H]1C(=O)N(C)c2cnc(Nc3ccc(C(=O)NC4CCC(N5CCN(CC6CC6)CC5)CC4)cc3OC)nc2N1C(C)C (some centres undefined) , state the outcome it received in this test.
Output line: true

Input line: Given COc1c(OCCCN2CCOCC2)ccc2c3n(c(=NC(=O)c4cnc(N)nc4)nc12)CCN3 , state the outcome it received in this test.
Output line: true

Input line: Given CCc1c2c(nc3ccc(O)cc13)-c1cc3c(c(=O)n1C2)COC(=O)[C@]3(O)CC , state the outcome it received in this test.
Output line: true

Input line: Given Cc1[nH]nc2ccc(-c3cncc(OC[C@@H](N)Cc4ccccc4)c3)cc12 , state the outcome it received in this test.
Output line: true

Input line: Given CC(=O)OCCN1C(=O)c2c(C)nc3ccc(S(=O)(=O)N4CCOCC4)cc3c2C1=O , state the outcome it received in this test.
Output line: false

Input line: Given OCc1ccc(-c2ccc(-c3ccc(CO)s3)o2)s1 , state the outcome it received in this test.
Output line: true

Input line: Given CC(=O)c1c(C)c2cnc(Nc3ccc(N4CCNCC4)cn3)nc2n(C2CCCC2)c1=O , state the outcome it received in this test.
Output line: true

Input line: Given O=C(C=Cc1cccnc1)NCCCCC1CCN(C(=O)c2ccccc2)CC1 , state the outcome it received in this test.
Output line: true

Input line: Given O=C(Cc1ccc(-c2ccc(OCCN3CCOCC3)cc2)cn1)NCc1ccccc1 , state the outcome it received in this test.
Output line: true

====

Test: Quantitative High-Throughput drug screen in 47 multiple myeloma cell lines against the NCATS MIPE library collection: INA6_PLB cell viability assay (AID 1918965)
Conditions: INA6 myeloma viability, CellTiter-Glo ATP luminescence, 48 h; series mostly up to 45.8 µM
Results filed as inconclusive are left out. Activity calls are given as the source filed them. Calls follow the shape of the dose curve; as a rule, active = well fitted cell-killing curve with a large enough effect; inconclusive = small, poorly fitted or top-dose-only effect, or effect the other way; inactive = no such curve, though single readings can be large or run the other way.
Test Readout: Potency

Compound	Endpoint Result
CC1(C)CCC(c2ccc(Cl)cc2)=C(CN2CCN(c3ccc(C(=O)NS(=O)(=O)c4ccc(N[C@H](CCN5CCOCC5)CSc5ccccc5)c(S(=O)(=O)C(F)(F)F)c4)cc3)CC2)C1	5.9 µM (active)
COc1cc2c(cc1-c1c(C)noc1C)ncc1[nH]c(=O)n([C@H](C)c3ccccn3)c12	0.264 µM (active)
CCn1nnc2c(N3CCOCC3)nc(-c3ccc(NC(=O)Nc4ccc(C(=O)N5CCN(C)CC5)cc4)cc3)nc21	0.0053 µM (active)
Cn1cc(-c2[nH]c3cc(NC(=O)[C@H](N)C4CCCCC4)cc4c3c2C=NNC4=O)cn1	0.209 µM (active)
O=C(NCCS(=O)(=O)c1ccc(C(F)(F)F)cn1)c1ccc(Cl)cc1	inactive
CC(C)(O)c1cc2nc(-c3cnc(N)nc3)nc(N3CCOCC3)c2s1	0.743 µM (active)

Input line: Which Potency is reported for this compound? CNC(=O)c1cc(Oc2ccc(NC(=O)Nc3cc(C(C)(C)C)nn3-c3ccc4ncccc4c3)c(F)c2)ccn1
Output line: 3.32 µM (active)

Input line: Which Potency is reported for this compound? NC(=O)c1c(OCc2c(F)cc(Br)cc2F)nsc1NC(=O)NCCCCN1CCCC1
Output line: 18.7 µM (active)

Input line: Which Potency is reported for this compound? Nc1ncnc2c1c(-c1cccc(OCc3ccccc3)c1)cn2C1CC(CN2CCCC2)C1 (stereo not drawn)
Output line: 6.62 µM (active)

Input line: Which Potency is reported for this compound? Nc1nc(Nc2ccc(S(N)(=O)=O)cc2)nn1C(=O)c1c(F)cccc1F
Output line: 1.48 µM (active)

Input line: Which Potency is reported for this compound? CN1c2cc(O)c(N=NC(N)=O)cc2CC1S(=O)(=O)O (stereo not drawn)
Output line: inactive

Input line: Which Potency is reported for this compound? O=C(O)CCCc1c[nH]c2ccccc12
Output line: inactive

Input line: Which Potency is reported for this compound? Cc1c(C)n(Cc2ccc(-c3ccccc3C(=O)O)cc2)c2ccc(C(=O)N[C@@H](C)c3ccc([N+](=O)[O-])cc3)cc12
Output line: 18.7 µM (active)

====

Biological target: Cytochrome P450 2C9 (Homo sapiens) (UniProt P11712)
Sequence (P11712 whole entry, looked up): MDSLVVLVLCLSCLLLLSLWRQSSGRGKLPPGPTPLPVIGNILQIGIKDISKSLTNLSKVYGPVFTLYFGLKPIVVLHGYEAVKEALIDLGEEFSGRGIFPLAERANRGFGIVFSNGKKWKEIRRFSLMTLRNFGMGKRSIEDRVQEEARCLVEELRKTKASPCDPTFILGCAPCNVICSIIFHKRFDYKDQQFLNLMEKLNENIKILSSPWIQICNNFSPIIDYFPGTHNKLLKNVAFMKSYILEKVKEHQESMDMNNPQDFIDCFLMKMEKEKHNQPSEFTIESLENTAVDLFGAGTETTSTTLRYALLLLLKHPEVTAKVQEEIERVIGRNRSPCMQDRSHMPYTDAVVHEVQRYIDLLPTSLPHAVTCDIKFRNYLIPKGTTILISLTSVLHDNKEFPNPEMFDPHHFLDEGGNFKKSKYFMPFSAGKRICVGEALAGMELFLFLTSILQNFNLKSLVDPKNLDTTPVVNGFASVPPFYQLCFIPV
Assay: Cytochrome P450 family 2 subfamily C member 9 (CYP2C9) small molecule antagonists: luciferase biochemical (cell-free) qHTS assay (AID 1645842); also: nearly all actives have a fitted effect of over 55% in size
Conditions: P450-Glo CYP2C9 enzyme assay, luciferin luminescence; series mostly up to 57.4 µM
Records with an inconclusive call do not appear. Activity calls are given as the source filed them. Calls come from the whole dose curve; as a rule, active = well fitted inhibition curve with a large enough effect in the repeat runs; inconclusive = weak or mixed curves; inactive = no such curve, though single readings can be large or run the other way.
Just give me one of these, please: active, inactive

Input line: Given COc1cc(Nc2ncc(F)c(Nc3ccc4c(n3)N(COP(=O)(O)O)C(=O)C(C)(C)O4)n2)cc(OC)c1OC , state the outcome it received in this test.
Output line: active

Input line: Given Cc1[nH]nc2ccc(-c3cncc(OC[C@@H](N)Cc4ccccc4)c3)cc12 , state the outcome it received in this test.
Output line: active

Input line: Given CNC(=O)c1c(F)cccc1Nc1nc(Nc2cc3c(cc2OC)CCN3C(=O)CN(C)C)nc2[nH]ccc12 , state the outcome it received in this test.
Output line: active

Input line: Given COc1ccc(-n2nc(C(N)=O)c3c2C(=O)N(c2ccc(N4CCCCC4=O)cc2)CC3)cc1 , state the outcome it received in this test.
Output line: inactive

Input line: Given NCC(=O)Nc1ccc(-n2nc(C(F)(F)F)cc2-c2ccc3c(ccc4ccccc43)c2)cc1 , state the outcome it received in this test.
Output line: active

Input line: Given C=CC(=O)Nc1cccc(Oc2nc(Nc3ccc(N4CCN(C)CC4)cc3OC)ncc2Cl)c1 , state the outcome it received in this test.
Output line: active

Input line: Given Nc1ccn([C@@H]2CS[C@H](CO)O2)c(=O)n1 , state the outcome it received in this test.
Output line: inactive

====

Experiment: qHTS profiling of the MIPE4 collection as inhibitors of Plasmodium falciparum (DD2) proliferation (AID 743345)
Settings: P. falciparum Dd2 in erythrocytes, SYBR Green DNA, 72 h; at 28.5 µM (top of the series) unless noted
Classify: yes (1) when parasite growth remaining, % of DMSO control (lower = more inhibition) is strictly less than 9%; no (0) when parasite growth remaining, % of DMSO control (lower = more inhibition) is not.

Input line: Could you please tell me whether parasite growth remaining, % of DMSO control (lower = more inhibition) recorded for Cc1cn(-c2cc(NC(=O)c3ccc(C)c(Nc4nccc(-c5cccnc5)n4)c3)cc(C(F)(F)F)c2)cn1 is less than 9%?
Output line: yes (1)

Input line: Could you please tell me whether parasite growth remaining, % of DMSO control (lower = more inhibition) recorded for Cc1ccc(CN2CCNCC2)cc1NC(=O)CNc1ccc(F)c(F)c1 is less than 9%?
Output line: no (0)

Input line: Could you please tell me whether parasite growth remaining, % of DMSO control (lower = more inhibition) recorded for COc1ccc(C(=O)CC2(O)C(=O)Nc3c(Cl)ccc(Cl)c32)cc1 (centres undefined) is less than 9%?
Output line: no (0)

Input line: Could you please tell me whether parasite growth remaining, % of DMSO control (lower = more inhibition) recorded for COc1cc2c(Nc3ccc(NC(=O)c4ccccc4)cc3)ncnc2cc1OCCCN1CCOCC1 is less than 9%?
Output line: no (0)

Input line: Could you please tell me whether parasite growth remaining, % of DMSO control (lower = more inhibition) recorded for Cn1c(=O)n(-c2ccc(C(C)(C)C#N)cc2)c2c3cc(-c4cnc5ccccc5c4)ccc3ncc21 is less than 9%?
Output line: yes (1)

Input line: Could you please tell me whether parasite growth remaining, % of DMSO control (lower = more inhibition) recorded for NCC(=O)Nc1ccc(-n2nc(C(F)(F)F)cc2-c2ccc3c(ccc4ccccc43)c2)cc1 is less than 9%?
Output line: yes (1)

Input line: Could you please tell me whether parasite growth remaining, % of DMSO control (lower = more inhibition) recorded for COc1cc(OC2CCN(C)CC2)ccc1Nc1ncc2c(n1)n(C1CCCC1)c(=O)n2C is less than 9%?
Output line: no (0)

Input line: Could you please tell me whether parasite growth remaining, % of DMSO control (lower = more inhibition) recorded for O=C(NCCCNc1nc(Nc2cccc(NC(=O)N3CCCC3)c2)ncc1I)c1cccs1 is less than 9%?
Output line: no (0)
